Molecular target: T1, human B7-H7 (soluble analyte in SPR) (human, UniProt Q9UM44 23-344, limits assumed)
T1 sequence: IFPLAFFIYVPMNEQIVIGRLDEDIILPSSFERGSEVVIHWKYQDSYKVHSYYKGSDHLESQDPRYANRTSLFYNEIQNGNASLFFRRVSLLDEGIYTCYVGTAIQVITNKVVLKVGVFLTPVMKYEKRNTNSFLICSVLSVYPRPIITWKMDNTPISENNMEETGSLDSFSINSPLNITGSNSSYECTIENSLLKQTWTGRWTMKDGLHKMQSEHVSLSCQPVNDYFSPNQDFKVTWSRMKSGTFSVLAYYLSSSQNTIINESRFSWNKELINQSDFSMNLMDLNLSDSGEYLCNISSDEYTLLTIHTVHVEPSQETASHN
Assay: SPR (Biacore), antibody captured by anti-Fc on CM5 chip, B7-H7 injected, 37 C
measurementType: Kd (nM)

binder	reportedValue
anti-B7-H7 antibody 1D3 (antibody, V domains shown, Mouse hybridoma antibody) VH: EVQLQQSGPELEKPGASVKISCKASGYSFTGYNMNWVKESNGRSLEWIGNIDPYSGGSTYNQKFKGKATMTVDKSSSTAYMQLKSLTSEDSAVYYCARSVYDAPWLAHWGQGTLVTVSA VL: DIQMTQSPASLSASVGETVTITCRASENIYIYLAWYQQKQGKSPQLLVYNAKTLAEGVPSRFSGSGSGTQFSLKINRLQPEDFGNYYCQHHYGTPPTFGGGTKLEIK	0.9
anti-B7-H7 antibody 5C9 (antibody, V domains shown, Mouse hybridoma antibody) VH: QVQLQQSGAELAKPGASVKMSCKASGYTFTSFWIHWIKQRPGQGLEWIGYIIPNTDYTEYNQKFKDKATFTADKSSSTAYMQLSSLTSEDSAVFYCARGLRGAYYFDYWGQGTTLTVSS VL: DIVLTQSPASLAVSLGLRATISCRSSQSVSTSTNGYMHWYQQKPGQPPKLLIMYASNLESGVPARFSGSGSGTDFTLNIHPVDEEDTATYYCQHSWVLPYTFGGGTKLEIK	0.8
anti-B7-H7 antibody 3H6 (antibody, V domains shown, Mouse hybridoma antibody) VH: EVQLQQSGPELVKPGASVKISCKTSGYTFTEYTMHWVKQSHGKSLEWIGGINPNNGGAPYNQKFKGKATLTVDKSSSTAYMELRSLTSEDSAVYYCARGGYYFDYWGQGTTLTVSS VL: DIVMTQSHKFMSTSVGDRVSITCKASQDVSTAVAWYQQKSGQSPKLLIYWASTRHTGVPDRFTGSGSGTDYTLTISSVQAEDLALYYCQQHYDTPFTFGGGTKLEIK	0.8

Taken from patent US20210198366A1.
